# Tested System: Bromodomain-containing protein 4 (Homo sapiens)
# Measurement Description: Inhibition of human recombinant BRD4 BD2 (349 to 460 residues) extracted from Escherichia coli BL21 (DE3) at 10 uM incubated for 2 hrs by TR-FRET assay relative to control
Assay Readout: inhibition (%)
Give just the number in %; leave the unit off.

COc1ccc(C(=O)c2nc3ccccc3c(=O)[nH]2)cc1 = 42
O=C(c1ccc(O)cc1)c1nc2ccccc2c(=O)[nH]1 = 11
COc1cc(OC)c2c(=O)[nH]c(/C=C/c3ccc(N(C)C)cc3)nc2c1 = 74
COc1ccc(Cc2nc3cc(OC)cc(OC)c3c(=O)[nH]2)cc1 = 75
COc1ccc(CCc2nc3cc(OC)cc(OC)c3c(=O)[nH]2)cc1 = 86

# input for lookup
Task item: Request body: readout inhibition, system Bromodomain-containing protein 4 (Homo sapiens), query "COc1cc(OC)c2c(=O)[nH]c(C(=O)c3cc(OC)c(OC)c(OC)c3)nc2c1" . Return the value.
Reply: 17

###

# Tested System: Bromodomain-containing protein 4 (Homo sapiens)
# Measurement Description: Inhibition of BRD4 (unknown origin)
Assay Readout: pIC50
Worth noting: pIC50 values are minus log10 of concentrations stated in mol/L.

Task item: Form entry - test system: Bromodomain-containing protein 4 (Homo sapiens); read-out: pIC50; molecule: "Cc1nnn(C)c1-c1cnc2c3cc4cnn(C)c4cc3n([C@H](c3ccccc3)C3CCOCC3)c2c1"
Reply: 8.61

###

pIC50 values by entry
# Tested System: Bromodomain-containing protein 4 (Homo sapiens)
# Measurement Description: Inhibition of human recombinant BRD4 BD1 (42 to 167 residues) extracted from Escherichia coli BL21 (DE3) incubated for 2 hrs by TR-FRET assay
pIC50: −log10 of the molar value.

// known answers, use as guide
COc1cc(OC)c2c(=O)[nH]c(/C=C/c3ccc(N(C)C)cc3)nc2c1 = < 5.00
COc1cc(OC)c2c(=O)[nH]c(/C=C/c3ccc(Cl)cc3)nc2c1 = < 5.00
COc1cc(OC)c2c(=O)[nH]c(/C=C/c3cc(OC)c(O)c(OC)c3)nc2c1 = < 5.00

Task item: What value of pIC50 on Bromodomain-containing protein 4 (Homo sapiens) does "COc1ccc(C(=O)c2nc3cc(OC)c(I)c(OC)c3c(=O)[nH]2)cc1" have?
Reply: < 5.00

Task item: Notebook entry, Bromodomain-containing protein 4 (Homo sapiens) assay: pIC50 of "COc1ccc(Cc2nc3cc(OC)cc(OC)c3c(=O)[nH]2)cc1" = ?
Reply: 5.34

Task item: What is its pIC50 for Bromodomain-containing protein 4 (Homo sapiens)? Entry: "COc1cc(OC)c2c(=O)[nH]c(C(=O)c3cccc(C(F)(F)F)c3)nc2c1"
Reply: < 5.00

Task item: Short answer please: pIC50, Bromodomain-containing protein 4 (Homo sapiens), entry "COc1cc(OC)c2c(=O)[nH]c(C=C(c3ccccc3)c3ccccc3)nc2c1"
Reply: < 5.00

Task item: Give recorded pIC50 with Bromodomain-containing protein 4 (Homo sapiens) for the following compound: "COc1cc(OC)c2c(=O)[nH]c(/C(C)=C/c3ccccc3)nc2c1"
Reply: < 5.00

Task item: Observed pIC50 on Bromodomain-containing protein 4 (Homo sapiens) for "COc1cc(OC)c2c(=O)[nH]c(C3CCN(Cc4ccccc4)CC3)nc2c1" , please.
Reply: 5.10

Task item: Reported pIC50 for Bromodomain-containing protein 4 (Homo sapiens), given "COc1ccc(CCc2nc3cc(OC)cc(OC)c3c(=O)[nH]2)cc1" ?
Reply: < 5.00

Task item: Give recorded pIC50 with Bromodomain-containing protein 4 (Homo sapiens) for the following compound: "COc1ccc(C(=O)c2nc3ccccc3c(=O)[nH]2)cc1"
Reply: 5.67

Task item: Checklist item: pIC50 tested on Bromodomain-containing protein 4 (Homo sapiens), entry COc1cc(OC)c2c(=O)[nH]c(CC(C)c3ccc(C(C)(C)C)cc3)nc2c1 (stereo not drawn) , value?
Reply: < 5.00

Task item: # value lookup — system Bromodomain-containing protein 4 (Homo sapiens), readout pIC50, item "COc1ccc(/C=C/c2nc3cc(OC)cc(OC)c3c(=O)[nH]2)cc1"
Reply: 5.42

###

# Tested System: Bromodomain-containing protein 4 (Homo sapiens, UniProt O60885)
# Measurement Description: Selectivity index, ratio of IC50 for human recombinant BRD4 BD1 (42 to 167 residues) extracted from Escherichia coli BL21 (DE3) to IC50 for human recombinant BRD4 BD2 (349 to 460 residues) extracted from Escherichia coli BL21 (DE3)
The following compounds are shown together with reported Ratio IC50 values.

Illustrative cases are given below, each with its answer.
COc1ccc(C(=O)c2nc3cc(OC)cc(OC)c3c(=O)[nH]2)cc1 = > 10
COc1cc(OC)c2c(=O)[nH]c(/C=C/c3ccc(N(C)C)cc3)nc2c1 = > 21
COc1ccc(CCc2nc3cc(OC)cc(OC)c3c(=O)[nH]2)cc1 = > 13
COc1cc(OC)c2c(=O)[nH]c(/C=C/c3cc(OC)c(O)c(OC)c3)nc2c1 = > 26
COc1cc(OC)c2c(=O)[nH]c(/C(C)=C/c3ccccc3)nc2c1 = > 7
COc1cc(OC)c2c(=O)[nH]c(C=C(c3ccccc3)c3ccccc3)nc2c1 = > 1

Task item: Provide value of Ratio IC50 for this record tested with Bromodomain-containing protein 4 (Homo sapiens, UniProt O60885): "COc1cc(OC)c2c(=O)[nH]c(C(=O)c3ccc(F)cc3)nc2c1"
Reply: > 10

Task item: # value lookup — system Bromodomain-containing protein 4 (Homo sapiens, UniProt O60885), readout Ratio IC50, item COc1cc(OC)c2c(=O)[nH]c(CC(C)c3ccc(C(C)(C)C)cc3)nc2c1 (centres undefined)
Reply: > 13

Task item: Quick check: Ratio IC50 on Bromodomain-containing protein 4 (Homo sapiens, UniProt O60885), item "COc1ccc(Cc2nc3cc(OC)cc(OC)c3c(=O)[nH]2)cc1" ?
Reply: 3

###

# Tested System: Bromodomain-containing protein 4 (Homo sapiens, UniProt O60885)
# Measurement Description: Inhibition of human recombinant BRD4 BD2 (349 to 460 residues) extracted from Escherichia coli BL21 (DE3) incubated for 2 hrs by TR-FRET assay
Quick reference for log10 of IC50 among some molecules
// units: nM (pre-log); metric: IC50; scale: log10

Worked examples, 5 molecules total:
COc1ccc(CCc2nc3cc(OC)cc(OC)c3c(=O)[nH]2)cc1 = 2.87
COc1cc(OC)c2c(=O)[nH]c(/C=C/c3cc(OC)c(O)c(OC)c3)nc2c1 = 2.59
COc1ccc(C(=O)c2nc3cc(OC)cc(OC)c3c(=O)[nH]2)cc1 = 3.59
COc1cc(OC)c2c(=O)[nH]c(C=C(c3ccccc3)c3ccccc3)nc2c1 = 3.85
COc1ccc(/C=C/c2nc3cc(OC)cc(OC)c3c(=O)[nH]2)cc1 = 2.08

Task item: Tell me reported log10 of IC50 for "COc1cc(OC)c2c(=O)[nH]c(C(=O)c3ccc(F)cc3)nc2c1" , tested with Bromodomain-containing protein 4 (Homo sapiens, UniProt O60885).
Reply: 3.26

Task item: Form entry - test system: Bromodomain-containing protein 4 (Homo sapiens, UniProt O60885); read-out: log10 of IC50; molecule: "COc1ccc(Cc2nc3cc(OC)cc(OC)c3c(=O)[nH]2)cc1"
Reply: 3.18

Task item: # get_value(readout= log10 of IC50, system= Bromodomain-containing protein 4 (Homo sapiens, UniProt O60885)) for "COc1cc(OC)c2c(=O)[nH]c(/C(C)=C/c3ccccc3)nc2c1"
Reply: 3.12

Task item: What log10 of IC50 appears in the records for this molecule with Bromodomain-containing protein 4 (Homo sapiens, UniProt O60885)? "COc1cc(OC)c2c(=O)[nH]c(/C=C/c3ccc(N(C)C)cc3)nc2c1"
Reply: 2.67

Task item: Give Bromodomain-containing protein 4 (Homo sapiens, UniProt O60885) log10 of IC50 for COc1cc(OC)c2c(=O)[nH]c(CC(C)c3ccc(C(C)(C)C)cc3)nc2c1 (stereo not given)
Reply: 2.87

###

# Tested System: Bromodomain-containing protein 4 (Homo sapiens, UniProt O60885)
# Measurement Description: Inhibition of human recombinant BRD4 BD2 (349 to 460 residues) extracted from Escherichia coli BL21 (DE3) at 10 uM incubated for 2 hrs by TR-FRET assay relative to control
Listed here: items and their measured inhibition.
Give the number; % is assumed, so skip it.

Example compounds with recorded inhibition:
COc1cc(OC)c2c(=O)[nH]c(/C=C/c3ccc(Cl)cc3)nc2c1 = 54
COc1cc(OC)c2c(=O)[nH]c(CC(C)c3ccc(C(C)(C)C)cc3)nc2c1 (stereo not given) = 97
COc1cc(OC)c2c(=O)[nH]c(C3CCN(Cc4ccccc4)CC3)nc2c1 = 46
COc1cc(OC)c2c(=O)[nH]c(C(=O)c3cccc(C(F)(F)F)c3)nc2c1 = 53

Task item: What does the record list as inhibition for "O=C(c1ccc2ccccc2c1)c1nc2ccccc2c(=O)[nH]1" ?
Reply: 17

Task item: Give the measured inhibition of "COc1cc(OC)c2c(=O)[nH]c(C(=O)c3ccc(OCCO)cc3)nc2c1" .
Reply: 48
